test system: MS2 coat protein; experiment: apparent KD of MS2 coat protein; designed switch direction (-1 OFF switch, 1 ON switch): -1; higher = weaker reporter binding; settings: input ligand: none
readout-label: apparent KD of MS2 coat protein (µM)
Just the number in µM, nothing appended.

1. AAAUCAGAGGAGGAUAUGGUAUAGGAAAUGGUGCCAGAAGGUUUCACAUGAGGAUCACCCAUGUCAAAUAGUGA [EX6 #62] (Eterna round: R97, puzzle: Exclusion 6)    0.0604
2. UAUUAGCAAGCAAGAUCCCACAUGAGGAUCACCCAUGUGCUCGUCUUAUAAGGUACUGUGACGAGAGUCACGGUACC [Mat - Sensor, turn-off var - Eli Mod - D47] (Eterna round: R97, puzzle: Sensor, turn-off variant 1)    0.0542

Please turn your attention to the following entry.
Qu. Supply reported apparent KD of MS2 coat protein belonging to this sequence: UUACGGAUAGAGGAUAUAUUAAGGAAGGUUUCGAUAGAAGGCUAGACAUGAGGAUCACCCAUGUAUAUUGGGAU [JR_Ex6_Sub073] (Eterna round: R97, puzzle: Exclusion 6)
Ans. 0.0979

---

tested on: MS2 coat protein; assay: apparent KD of MS2 coat protein; designed switch direction (-1 OFF switch, 1 ON switch): -1; higher = weaker reporter binding; details: input ligand: microRNA oligo, concentration not stated
Note to self: values exactly at 20 nM are 1 (yes). So apparent KD of MS2 coat protein at or above 20 nM is 1 (yes), below is 0 (no).

Here are 2 sequences together with their reported answers.
1. GUCAGCUCGUGAGGAUAUGAACAUGAGGAUCACCCAUGUAAGAUCAAGCUGCUUCGGCAGCAAGUUCAGAAGGCACGAGCUGAU [ENG2/10-A2] (Eterna round: R96, puzzle: Exclusion NG 2)    1 (yes)
2. UACAUGAGGAUCACCCAUGUUUUGUCGUGUAUGGUAUUUAUCUAGGAUAUCAUUAUAUUUAUUUAUGAGAAGGAGAAUAUUAAU [JMF's solution 97] (Eterna round: R96, puzzle: Exclusion NG 3)    1 (yes)

Attention now turns to another entry.
Qu. Reported apparent KD of MS2 coat protein at or above 20 nM? UUGUUAUGUGUAGGAUAUGCGUAUUAUUAUUAUGCAGAAGGACAUGAGGAUCACCCAUGUGUAUUGUUAUUAUAUAUUAUAUAU [Title] (Eterna round: R96, puzzle: Exclusion NG 1)
Ans. 0 (no)

---

tested on: MS2 coat protein; test: apparent KD of MS2 coat protein; designed switch direction (-1 OFF switch, 1 ON switch): -1; higher = weaker reporter binding; conditions: Eterna round: R95; input ligand: microRNA oligo, concentration not stated
Note to self: values exactly at 20 nM are 1 (yes). So apparent KD of MS2 coat protein at or above 20 nM is 1 (yes), below is 0 (no).

1) UAGAAGGUAGGAUAUACGAAUAAAUAGGGUAGUAAGAAGACACAUGAGGAUCACCCAUGUAGAAGGACCAAGAU [Mat - Exclusion 2 - Mod of my Tesla design - D33] (puzzle: Exclusion 2)    0 (no)
2) AGUACUAUCACGAAAGUGAUAGUACAAUAAGCAAGUGAAACAUGAGGAUCACCCAUGUCCUCAUUUGCUCGUCUUAU [salish99_TOv2_r3_200again] (puzzle: Sensor v3, turn-off variant 2)    1 (yes)
3) UUUUAACAUGAGGAUCACCCAUGUGAGGAUAUCGAAAUUUAUAUUAAUAUUUAUAUAUCGAGAAGGCACAUUUU [JMF 56] (puzzle: Exclusion 1)    1 (yes)
4) GGUUGACAUGAGGAUCACCCAUGUGAGGAUAUGCGAGAGAAAAAAGUGAGGAAGUUAAGCAGAAGGCGCUGUCG [salish99-ex1_r3_005] (puzzle: Exclusion 1)    1 (yes)
5) UUUUAACAUGAGGAUCACCCAUGUGAGGAUAUCGAAAUUUAUAUUAAUAUUAUUAAUACGAGAAGGCACAUUUU [JMF 38] (puzzle: Exclusion 1)    1 (yes)

Qu. Reported apparent KD of MS2 coat protein at or above 20 nM? UAUCGGCGGACCGAGGCUUUUUGCUCGUCUUAUGCUACGACAUGAGGAUCACCCAUGUGGUGGUGGUCCGUUGUAGU [JL ViennaUCT Bitein mod 8] (puzzle: Sensor v3, turn-off variant 2)
Ans. 0 (no)

Qu. Reported apparent KD of MS2 coat protein at or above 20 nM? UGAUCUUUUGUUAGGAUAUGCUGGCUGAAAAGUCAGCAGAAGGGACAUGAGGAUCACCCAUGUUCUCUCUUUUU [Magic-09] (puzzle: Brourd's mod of Exclusion 4)
Ans. 0 (no)

---

test system: K4 kissing-loop RNA reporter; assay: apparent KD of K4 kissing-loop reporter; higher = weaker reporter binding; details: Eterna round: R107; input ligand: arginine 13.2 mM
readout-label: apparent KD of K4 kissing-loop reporter

Study these solved cases before continuing.
1. UGAUACCAGACGGCCGCCACUAGACCAGUCAAAGACUGGAUGUGAUGUUUGAGGAGUGAUGUUCCUAGGACCGGGUCUGGUAUCU [TrypBX 4 #Palindromic #SwitchBubble #StaticStem]    76.7 nM
2. UUAGUCAGAUUAUUAUUAGCCUGCGAGUCUAAGGAUAUCCGAAUUCGGAGAAGGUAGUGAUGUUACUUUGGCAGGCACUGACAUU [AK9 Exc FMN A]    357 nM
3. GGGCGUGGCGCGGCCGCCACUGGGCCUGGGUGCUCGCUGAGUGAUGUUCGUCGGCGGUUGGGUCGUAGGACCGGGUGCUGGUUGG [BDazzled - #9 SS Tryptophan B]    347 nM

Please turn your attention to the following entry.
Qu. Supply reported apparent KD of K4 kissing-loop reporter belonging to this sequence: GCGGCCCAGCCGGAUACCAGUGAGCCGCUGGGAACCGCGGGCCCAGAGUGAUGUUCGGGACACCCUUGGCAGCCGCCUGGGUCGC [#2 Same State - Theophylline B Attempt #20 (HarryS)]
Ans. 293 nM

---

system: MS2 coat protein; assay: apparent KD of MS2 coat protein; designed switch direction (-1 OFF switch, 1 ON switch): -1; higher = weaker reporter binding; settings: input ligand: none
readout-label: apparent KD of MS2 coat protein (µM)
Just the number in µM, nothing appended.

Study these solved cases before continuing.
1) GGUACUCAAAGAGUACCAAUACGAACAUGAGGAUCACCCAUGUAGGAUAUGCUACUCAAAGAGUAGCAGAAGGAUAUGAGCCUC [Far Half Aptamer v11] (Eterna round: R96, puzzle: Exclusion NG 3)    0.334
2) GUCAGCUCGUGAGGAUAUGAACAUGAGGAUCACCCAUGUAAGAUCAAGCUGCUUCGGCAGCAAGUUCAGAAGGCACGAGCUGAU [ENG2/10-A2] (Eterna round: R96, puzzle: Exclusion NG 2)    0.172

Qu. // output apparent KD of MS2 coat protein; input CACACCUCCGUCAGGAUAUUAAGGCACCGCCGCCAUGAGAAGGGACAUGAGGAUCACCCAUGUUAAUCGUGGAA [Betibier] (Eterna round: R97, puzzle: Brourd's mod of Exclusion 4) ; system MS2 coat protein
Ans. 0.0205

Qu. // output apparent KD of MS2 coat protein; input CCUCCGGUACGAGGAUAUCUGACGGCCGCCGGAGGAGAAGGCGUACAUGAGGAUCACCCAUGUCCAGCGUGCACCACGCUGGUU [Usbius] (Eterna round: R96, puzzle: Exclusion NG 1) ; system MS2 coat protein
Ans. 0.0449

---

system: K4 kissing-loop RNA reporter; test: apparent KD of K4 kissing-loop reporter; higher = weaker reporter binding; conditions: Eterna round: R107; input ligand: tryptophan 2.4 mM;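 also: bound reporter read as fluorescence of individual clusters on recovered sequencing chips by microscopy, with normalized cluster intensities fitted with a binding model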
Note to self: values exactly at 200 nM are true. So apparent KD of K4 kissing-loop reporter at or above 200 nM is true, below is false.

Here are 4 sequences together with their reported answers.
1. AAGUCUCGUUAAUUCGAGGUUGCGAUCGAUACCAGUAGCGAGAGGUACCCUUGGCAGCGAAGUGAGUGAUGUUCAUGAAAGAAGA [KL-XTheoA13]    false
2. GUCUCGAGUGAUGUUCGGGUCGUUUGGGAAGGAGCGCCCGGAAGGGCAGGUAGGUCGCCCGGACCGCGCGGGCAACCGCGCGGCC [#2 Same State - Arginine A Attempt #12 (HarryS)]    false
3. AAAGUGUCAGCACGAGUGAUGUUCGACGAUACCAGCCUCGAUAGAGGCCCUUGGCAGCGUAAACCAAGGGCUGGCACAAAAUAAA [#SwitchBubble 6 #K4Early]    true
4. GCGCGUCAUGUCAGCGGUGACUACGUCGAUACCAGCAGGGAAACCUGCCCUUGGCAGCGACGCGCUGGAGUGAUGUUCCGACGGC [#2 Exclusion - Theophylline A Attempt #7 (HarryS)]    false

Qu. Reported apparent KD of K4 kissing-loop reporter at or above 200 nM? AGUGGUGUUGUGUUAUGUUUGGGAAGUGAUCGAGGACCGGUACGGCCGCCACUCGAGUGAUGAGUGAGUGAUGUUUGUUUAGGGA [whbob_SS_Tryp_A_m10]
Ans. true

Qu. Reported apparent KD of K4 kissing-loop reporter at or above 200 nM? UGACUGGACUGAAGGAGCGUGGAAGGAGCGUAAGUAGUGAUGUUGCUUACAGGUAGGUCGCCGCAGGUAGGUCGCAGUCUAGUCU
Ans. false

Qu. Reported apparent KD of K4 kissing-loop reporter at or above 200 nM? AGACCUCAGUGAUGUUGAGGUAACACUGAUACCAGCGACUUAAUUCGCCCUUGGCAGCAGUCCACCGAGGUAUCUGAUUAGGUCA [#24 K4 Theophylline A Exclusion]
Ans. false

Qu. Reported apparent KD of K4 kissing-loop reporter at or above 200 nM? AGACUACUGACAGGAUAUAACAUCCUGGUCGUAUACCGAAAGGUAUACGAUUUCCUUCUAGUGAUGUUAGAAGGGUCGGUAGUCA [Omei KL FMN B Exc B v14]
Ans. false

Data provenance is the supplement of paper PMC9170038.
